# target: Human M4 (Homo sapiens, UniProt P08173)
# Sequence (P08173 whole entry): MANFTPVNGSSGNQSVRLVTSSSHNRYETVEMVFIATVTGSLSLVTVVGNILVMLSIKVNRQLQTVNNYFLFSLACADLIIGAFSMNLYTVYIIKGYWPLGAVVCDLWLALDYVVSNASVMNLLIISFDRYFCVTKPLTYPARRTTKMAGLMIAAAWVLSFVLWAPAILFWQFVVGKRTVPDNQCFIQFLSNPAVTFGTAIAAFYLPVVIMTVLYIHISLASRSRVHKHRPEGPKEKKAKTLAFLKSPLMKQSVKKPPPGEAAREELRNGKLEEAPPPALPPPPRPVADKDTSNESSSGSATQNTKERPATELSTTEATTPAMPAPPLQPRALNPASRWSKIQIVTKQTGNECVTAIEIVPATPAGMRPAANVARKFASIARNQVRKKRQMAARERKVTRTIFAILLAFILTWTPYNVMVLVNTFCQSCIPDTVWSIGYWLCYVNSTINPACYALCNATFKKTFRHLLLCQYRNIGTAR
# test: mAChR M4 cell-based functional assay (calcium flux, potentiation of EC20 acetylcholine response)
# Design: dose or concentration left out as unconfirmed
Where a name gives a salt, the structure may show the parent alone.
Lab note - cut at 70% for Emax: 1 if strictly below, -1 if not.

{"compound": "Cc1cc(C)c2c(n1)sc1c(NC3CCC3)nccc12 [Compound 3, dihydrochloride]", "class": -1}
{"compound": "Cc1c(C(F)F)nnc2sc3c(N4CC5(COC5)C4)nccc3c12 [Compound 41]", "class": 1}
{"compound": "Cc1c(Cl)nnc2sc3c(NC4CN(c5ncc(C(F)(F)F)cn5)C4)nccc3c12 [Compound 33, trifluoroacetic acid salt]", "class": -1}
{"compound": "Cc1nnc2sc3c(NC4CCC4)nccc3c2c1C [Compound 7, hydrochloride]", "class": -1}
{"compound": "COc1nnc2sc3c(NC4CN(c5ncc(C(F)(F)F)cn5)C4)nccc3c2c1C [Compound 38]", "class": -1}
{"compound": "Cc1nnc2sc3c(NCc4ccc(C(F)(F)F)c(F)c4)nccc3c2c1C [Compound 17, hydrochloride]", "class": 1}
{"compound": "Cc1nnc2sc3c(NC4CC4)nccc3c2c1C [Compound 8, hydrochloride]", "class": -1}
{"compound": "Cc1nnc2sc3c(NC4CCCC4)nccc3c2c1C [Compound 5, Hydrochloride]", "class": -1}
{"compound": "COc1ccc(CNc2nccc3c2sc2nnc(OC)c(C)c23)cc1 [Compound 37]", "class": -1}
{"compound": "Cc1nnc2sc3c(N4CCCC4)nccc3c2c1C [Compound 6, hydrochloride]", "class": -1}
